Target Or System: GluA2Qflip AMPA receptor (Homo sapiens)
Sequence (P42262 25-883 isoform P42262-2 limits assumed): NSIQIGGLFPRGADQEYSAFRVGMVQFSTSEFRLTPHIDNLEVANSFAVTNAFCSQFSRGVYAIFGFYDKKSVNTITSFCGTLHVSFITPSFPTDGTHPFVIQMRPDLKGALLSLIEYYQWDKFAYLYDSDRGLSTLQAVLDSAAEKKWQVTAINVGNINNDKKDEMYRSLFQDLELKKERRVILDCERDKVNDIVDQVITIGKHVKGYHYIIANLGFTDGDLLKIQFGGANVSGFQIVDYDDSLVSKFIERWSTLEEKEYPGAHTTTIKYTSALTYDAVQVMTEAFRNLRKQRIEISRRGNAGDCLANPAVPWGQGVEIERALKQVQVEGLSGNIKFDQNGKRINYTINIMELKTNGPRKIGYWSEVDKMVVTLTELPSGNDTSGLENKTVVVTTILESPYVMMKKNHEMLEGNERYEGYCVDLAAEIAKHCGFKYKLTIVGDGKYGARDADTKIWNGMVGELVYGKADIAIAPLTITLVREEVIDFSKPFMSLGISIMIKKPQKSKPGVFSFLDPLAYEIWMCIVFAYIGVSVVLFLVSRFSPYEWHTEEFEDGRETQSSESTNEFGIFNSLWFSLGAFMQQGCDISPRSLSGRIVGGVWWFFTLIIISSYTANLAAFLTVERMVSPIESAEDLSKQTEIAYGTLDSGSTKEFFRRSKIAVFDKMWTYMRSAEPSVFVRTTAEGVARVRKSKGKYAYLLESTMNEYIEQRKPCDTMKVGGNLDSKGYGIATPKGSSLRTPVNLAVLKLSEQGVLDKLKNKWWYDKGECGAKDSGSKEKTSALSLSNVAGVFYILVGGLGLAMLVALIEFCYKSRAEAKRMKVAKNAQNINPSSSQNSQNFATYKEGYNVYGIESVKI
Method: Laser-pulse photolysis amplitude measurement of whole-cell current
Assay type: cell-based
Measure Name: Ki

# Molecule Smiles, Ki
records = [
    ("Nc1ccc(C2=NNC(=O)Cc3cc4c(cc32)OCO4)cc1", "23 to 25 µM"),
]

Exam item: Field: Ki (GluA2Qflip AMPA receptor (Homo sapiens)). Entry: CC1=NN=C(c2ccc(N)cc2)c2cc3c(cc2C1)OCO3
Marked response: 14 to 16 µM

Data provenance is paper PMC3206322.
